Molecular target: T1, Anti-CD28 Fab (SEQ ID NOs: 696, 697)
T1 construct: In the phage ELISA the Fab was biotinylated and captured on neutravidin coated plates
T1 sequence (VH, as listed by the source, chain 1 of 2): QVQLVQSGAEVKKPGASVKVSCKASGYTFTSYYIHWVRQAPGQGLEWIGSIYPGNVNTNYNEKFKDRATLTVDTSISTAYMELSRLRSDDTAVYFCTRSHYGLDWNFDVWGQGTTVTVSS
T1 sequence (VL, as listed by the source, chain 2 of 2): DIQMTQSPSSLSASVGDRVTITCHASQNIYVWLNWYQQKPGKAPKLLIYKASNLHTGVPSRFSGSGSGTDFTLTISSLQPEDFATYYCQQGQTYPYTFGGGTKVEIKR
Assay: phage binding ELISA on captured anti-CD28 Fab; competitor: CD28 antigen pre-incubated in the wells
property_label: Anti-CD28 Fab signal in the presence of CD28 (phage binding ELISA)
Give the figure by itself; no unit, no explanation.

IN: Returns the measured Anti-CD28 Fab signal in the presence of CD28 (phage binding ELISA) for the input binder. Input: YCEGHAPEYMYKCL [Phage-685]
OUT: 0.07

IN: Entry YCDGHSSEYMWKCL [Phage-694] has what Anti-CD28 Fab signal in the presence of CD28 (phage binding ELISA)?
OUT: 0.06

IN: Bench note: what Anti-CD28 Fab signal in the presence of CD28 (phage binding ELISA) did YCLGHAPQYIQKCL [Phage-693] show?
OUT: 0.14

IN: Give the measured Anti-CD28 Fab signal in the presence of CD28 (phage binding ELISA) of YCDGHLPEYQMKCL [Phage-686] .
OUT: 0.08

IN: Requested read-out: Anti-CD28 Fab signal in the presence of CD28 (phage binding ELISA). Entry: YCDGHSAQYMHKCL [Phage-684]
OUT: 0.06
